B1: Transitional endoplasmic reticulum ATPase, residues 26 to 106; numbered along this chain, P55072 (parent)
chain: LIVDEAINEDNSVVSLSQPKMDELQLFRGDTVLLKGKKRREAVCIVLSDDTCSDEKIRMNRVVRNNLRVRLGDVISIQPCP

- Variants of: B1
- method summary: abundance fitness (aPCA) (normalised: wild type 0, dead -1); higher = more abundant; growth selection in yeast, the domain comes from the species named
- reported conditions: Homo sapiens
Form field: abundance fitness (one value per entry).

E9T	-0.107
N8T	0.046
I75G	-0.944

The record that follows has no abundance fitness shown yet.
Looking up A42P , I see its abundance fitness listed as -0.825
